The entries below come with measured pIC50 values attached.
# Measurement target: pseudo-kinase domain (JH2) of human Wild Type JAK2 (Homo sapiens (Human), UniProt O60674, F794H/W659A/W777A)
# Sequence (O60674 536-812 W659A/W777A/F794H): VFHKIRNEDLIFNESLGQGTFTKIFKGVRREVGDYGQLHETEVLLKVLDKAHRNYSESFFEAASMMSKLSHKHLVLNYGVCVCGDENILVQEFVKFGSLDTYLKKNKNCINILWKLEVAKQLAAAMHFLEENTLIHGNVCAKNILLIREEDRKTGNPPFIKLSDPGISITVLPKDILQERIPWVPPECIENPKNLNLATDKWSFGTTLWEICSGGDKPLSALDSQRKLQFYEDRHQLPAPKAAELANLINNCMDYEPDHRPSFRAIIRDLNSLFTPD
# Test protocol: JAK2 LanthaScreen JH2-WT Binding Assay
# Run conditions: 50 nM tracer, 1 hour at 25° C.
pIC50: −log10 of the molar value. Structures can show the parent of a compound that is named as a salt.

>>> result("[2H]C([2H])([2H])N1C(=O)C2(CCC(NC(=O)NCC)CC2)c2cc(Nc3ccc4cccc(C(F)(F)F)c4n3)ncc21 (single isomer, unassigned) [Example 1, trifluoroacetate salt]")
"≥ 7.00"

Next compound, pIC50 to be filled in.
In: Look at this compound and give its reported pIC50. CCNC(=O)NC1CCC2(CC1)C(=O)N(C)c1cnc(Nc3ccc4cccc(C(F)(F)F)c4n3)cc12 (single isomer, unassigned) [Example 2, trifluoroacetate salt]
Out: ≥ 7.00

====

Listed here are molecules together with their documented pIC50.
# Measurement target: pseudo-kinase domain (JH2) of human V617F mutant JAK2 (Homo sapiens (Human), UniProt O60674, F794H/V617F/W659A/W777A)
# Sequence (O60674 536-812 V617F/W659A/W777A/F794H): as the sequence (O60674 536-812 W659A/W777A/F794H) above, with V82F counted along it
# Test protocol: JAK2 LanthaScreen JH2-V617F Binding Assay
# Run conditions: 50 nM tracer, 1 hour at 25° C.
pIC50: −log10 of the molar value. Where a name gives a salt, the structure may show the parent alone.

Known pIC50 results, listed for orientation:
>>> result("[2H]C([2H])([2H])N1c2cnc(Nc3ccc4cccc(C(F)(F)F)c4n3)cc2[C@]2(C[C@@H](CNC(=O)C3CC3)C2)C1=O [Example 4, trifluoroacetate salt]")
"≥ 7.00"
>>> result("[2H]C([2H])([2H])N1c2cnc(Nc3ccc4cccc(C(F)(F)F)c4n3)cc2[C@]2(C[C@@H](CNC(=O)OC)C2)C1=O [Example 3, trifluoroacetate salt]")
"≥ 7.00"

Would you kindly look at the next entry?
In: Which pIC50 is reported for this molecule? [2H]C([2H])([2H])N1c2cnc(Nc3ccc4c(n3)c(-c3cnn(C(F)(F)F)c3)nn4C)cc2[C@]2(C[C@@H](CO)C2)C1=O [Example 5, trifluoroacetate salt]
Out: ≥ 7.00

====

# Measurement target: catalytic domain (JH1) of human JAK2 (Homo sapiens (Human), UniProt O60674)
# Sequence (O60674 826-1132): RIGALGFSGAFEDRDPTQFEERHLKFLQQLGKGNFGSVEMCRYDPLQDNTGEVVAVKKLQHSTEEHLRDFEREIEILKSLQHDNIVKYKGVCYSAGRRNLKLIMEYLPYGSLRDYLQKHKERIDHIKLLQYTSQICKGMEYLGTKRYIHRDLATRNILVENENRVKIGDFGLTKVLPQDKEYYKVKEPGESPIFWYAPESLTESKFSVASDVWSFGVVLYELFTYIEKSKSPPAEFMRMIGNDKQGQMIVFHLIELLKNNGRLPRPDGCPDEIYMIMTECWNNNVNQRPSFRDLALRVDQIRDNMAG
# Test protocol: JAK2 LanthaScreen JH1 Binding Assay
# Run conditions: JAK2 JH1, 50 nM tracer, 2 hours at 25° C.
Structures can show the parent of a compound that is named as a salt.
Measurement type: IC50

In: Which measured IC50 value corresponds to CCNC(=O)NC1CCC2(CC1)C(=O)N(C)c1cnc(Nc3ccc4cccc(C(F)(F)F)c4n3)cc12 (single isomer, unassigned) [Example 1, trifluoroacetate salt] ?
Out: > 2500 nM

====

# Measurement target: pseudo-kinase domain (JH2) of human V617F mutant JAK2 (Homo sapiens (Human), UniProt O60674, F794H/V617F/W659A/W777A)
# Test protocol: JAK2 LanthaScreen JH2-V617F Binding Assay
# Run conditions: 50 nM tracer, 1 hour at 25° C.
# Description: Example C. JAK2 LanthaScreen JH2-V617F Binding Assay JAK2 JH2-V617F binding assay utilizes pseudo-kinase domain (JH2, amino-acids 536-812 with 3 surface mutations W659A, W777A, F794H) of human V617F mutant JAK2 expressed as C-terminal His-Avi-tagged, biotinylated protein in a baculovirus expression system (BPS Bioscience, Catalog #79498). […] After incubation for 1 hour at 25° C., LanthaScreen signals were read on a PHERAstar FS plate reader (BMG LABTECH). […]
pIC50: −log10 of the molar value. Structures can show the parent of a compound that is named as a salt.
Measurement type: pIC50

>>> result("[2H]C([2H])([2H])N1c2cnc(Nc3ccc4c(n3)c(-c3cnn(C(F)(F)F)c3)nn4C)cc2[C@]2(C[C@@H](CNC(=O)C3CC3)C2)C1=O [Example 7, trifluoroacetate salt]")
"≥ 7.00"
>>> result("[2H]C([2H])([2H])N1c2cnc(Nc3ccc4c(n3)c(-c3cnn(C(F)(F)F)c3)nn4C)cc2[C@]2(C[C@@H](CNC(=O)OC)C2)C1=O [Example 6, trifluoroacetate salt]")
"≥ 7.00"

In: Query: pIC50; subject: CCNC(=O)NC1CCC2(CC1)C(=O)N(C)c1cnc(Nc3ccc4cccc(C(F)(F)F)c4n3)cc12 (single isomer, unassigned) [Example 1, trifluoroacetate salt]
Out: ≥ 7.00
